Test system: NCI-H460 lung
Measurement protocol: NCI-60 one-dose screen, 48 h
Experimental setup: 10 µM unless noted
This is part of a sample that, as a whole, favours compounds with a hit. Of some 83,000 tested, about 20% had one in any assay. Active and inactive are the calls of the source. How the source made its calls: active means growth percent below 10; inactive means the rest.
Hi there, use one of these labels in your reply, thanks! TRUE = active, FALSE = inactive

Tell me the recorded outcome of this test for O=C(CCCC(=O)Nc1ccc(Cn2nnc3cc(Cl)c(Cl)cc32)cc1)Nc1ccc(CN2N=NC3C=C(Cl)C(Cl)=CC32)cc1 (stereo not given) .
FALSE

Called result for O=C(NCCO)C(F)(F)F
FALSE

I would be grateful if you could indicate the recorded call for Oc1ccccc1/C=N/N=C/c1c(O)ccc2ccccc12 .
FALSE

Hello, I am checking results. What call was entered for CCC1(CC)C(OC)NC(Br)=C(C#N)C1(C#N)C(N)=O (stereo not given) ?
FALSE

Dear colleague, could you share the recorded outcome for COc1cc(/C(=C2/O[C@@H]([C@H]3COC(C)(C)O3)[C@H]3OC(C)(C)O[C@@H]23)c2ccc3c(c2)OCO3)cc(OC)c1OC when you have a moment?
FALSE

# outcome recorded in this test, key = COC(=O)c1ccc2[nH]c(O)c(C(=Nc3ccc(N(C)C(=O)CN4CCN(C)CC4)cc3)c3ccc(CCO)cc3)c2c1
FALSE

Dear all, I need the recorded test outcome for COC1=C(OC)C(=O)c2ccccc2C1=O , thank you.
FALSE

Test call, this compound: CN(C)CCOC(=O)C(C)(C)C
FALSE

// param item: CCCC(=O)NNc1[nH]c(-c2ccc(OC)cc2)cc1C(=O)OCC ; yields the recorded call
FALSE

Status in this test for CCCCCCCCCCC(C[N+](C)(C)C/C=C/c1ccccc1)C(O)c1ccccc1 (stereo not given) ?
TRUE

What classification did C/C=C/C/C=C/[C@H](C)C[C@H](O)[C@@H]1C[C@@H]2O[C@H]2/C=C/[C@H](O)[C@@H](O)/C=C/C[C@H](C)CC(=O)O1 end up with in this test?
FALSE

Can you look up the reported call for CCn1cnc(C[C@H](NC(=O)[C@@H](NC(=O)Nc2cc(C(F)(F)F)cc(C(F)(F)F)c2)C(C)C)C(=O)OC)c1 for me?
TRUE

What is the recorded call for this compound in the test? O=C(Nc1ccc(-n2cc(-c3ccncc3)c(-c3ccc(Cl)c(O)c3)n2)cc1)c1cc(Cl)cc(Cl)c1
FALSE

Please let me know the test result on file for O=c1c2c(c3ccccc3n1-c1ccccc1)NC(=S)NC2c1ccc(Cl)cc1 (stereo not given) .
TRUE

Test call for this compound, please: CCCCCCCCCC[N+](C)(C)N
FALSE

For this compound, state the assay outcome: CC(=O)NCCN
FALSE

Hi team, can someone confirm the assay call for CCCCCCCCCCCCOC(=O)/C=C\C(=O)NC(N)=O ?
FALSE

Returns: the outcome recorded for COC(c1ccccc1)C(Br)C(=O)c1ccccc1 (stereo not given) in this assay.
FALSE

Can you look up the reported call for CC(O)CCC(C)[N+](=O)[O-] (stereo not given) for me?
FALSE

Just curious, what result did CCOC(=O)C1C(=O)C(=O)N(C(C)C)C1C(=O)OCC (stereo not given) get here?
FALSE

Dear colleague, could you share the recorded outcome for O=C(Nn1cnc2ccccc21)N1CCCC1 when you have a moment?
FALSE

Look up the recorded call for COc1ccc(Cn2cc3c(c2-c2ccc(OC)cc2)CCc2cnoc2-3)cc1 in this test.
TRUE

Write down the call the test reported for this compound. Item: CSCc1ncc(-c2ccc(C(F)(F)F)cc2)c(NC2CCCCCC2)n1
FALSE

In this assay, the call recorded for COc1cc(-c2cc3cnccc3c3nc(N)c4ccncc4c23)cc(OC)c1OC was what?
FALSE

Please state the recorded outcome for this compound: CC1(C)C(O)NC(Cl)=C(C#N)C1(C#N)C#N (stereo not given)
FALSE

Identify the outcome logged in this assay for the compound shown: Cc1nc2c(nnn2-c2ccccc2)c2nc(-c3ccc(Cl)cc3)oc(=O)c12
FALSE

Check the results log: what was the call for Cc1nc(N)sc1C(=O)NCCO ?
FALSE

Returns: the outcome recorded for C=CCSc1nnc(COc2ccc3c(C)c(Cc4ccccc4)c(=O)oc3c2C)o1 in this assay.
FALSE

Per the records of this test, what outcome belongs to Cc1ccc(S(=O)(=O)NC(CCC(=O)Nc2ccccc2)C(=O)Nc2ccccc2)cc1 (stereo not given) ?
TRUE

Could you kindly confirm the outcome this assay logged for C=C(C)[C@@H]1CC[C@]2(COC(=O)c3ccccc3C(=O)O)CC[C@]3(C)[C@H](CC[C@@H]4[C@@]5(C)CCCNC(C)(C)[C@@H]5CC[C@]43C)[C@@H]12 ?
FALSE

Dear colleague, could you share the recorded outcome for O=C(/C(Br)=C/c1ccccc1)c1ccccc1 when you have a moment?
FALSE

GET /call?item= CC(C)CCCCCOC(=O)c1ccccc1SSc1ccccc1C(=O)OCCCCCC(C)C returns the recorded outcome of this test.
FALSE

Can you look up the reported call for O=C1/C(=C\c2cn(-c3nc(N4CCOCC4)nc(N4CCOCC4)n3)c3ccccc23)c2ccccc2N1c1c(Cl)cccc1Cl for me?
FALSE

Per the assay record, what outcome was assigned to O=S(=O)(Cc1cccc2c(CS(=O)(=O)c3ccc(Cl)cc3)cccc12)c1ccc(Cl)cc1 ?
FALSE

Record lookup: outcome of this test for CC(C)(CNC1CCCCC1)OC(=O)c1ccccc1 ?
FALSE

* * *

Test system: MDA-MB-231 breast
Measurement protocol: NCI-60 one-dose screen, 48 h
Experimental setup: 10 µM unless noted
About 83,000 compounds went through this panel and 20% of them were active in at least one assay; those are over-represented in the sample as a whole. Active and inactive are the calls of the source. Rule for the calls: active = growth percent below 10; inactive = the rest.
Output constraint: value belongs to Y for active, N for inactive

Can you look up the reported call for CCCCCCCCCCCCCCCCCC1=NCCN1CCNC(C)=O for me?
N

What was the test verdict on COc1cc(-c2c3c(cn2CCN2CCCCC2)-c2oncc2CC3)cc(OC)c1OC ?
N

Query: recorded result category for COc1ccc2oc(=O)cc(CN3C(=O)S/C(=C\c4ccc(Cl)cc4)C3=O)c2c1 in this test
N

Look up the recorded call for CCC(C)(C)c1ccc(OCCCCCCN2CCNCC2)cc1 in this test.
N

Short answer needed: outcome of this test for COC(=O)c1ccc2[nH]c(O)c(C(=Nc3ccc(N(C)C(=O)CN4CCN(C)CC4)cc3)c3cccc(OC)c3)c2c1 ?
N

For this compound, state the assay outcome: Nc1cc2c(cc1Br)[nH]c(=O)c1ccccc12
N

Hi, do you know how COc1cc(Cn2ccc3c2-c2oncc2CC3)cc(OC)c1 came out in this test?
N

I would be grateful if you could indicate the recorded call for COC(=O)[C@H](Cc1cn(C)cn1)NC(=O)[C@H](Cc1c[nH]c2ccccc12)NC(=O)Nc1cc(C(F)(F)F)cc(C(F)(F)F)c1 .
Y

What was the test verdict on C[C@@H](c1ccc2c(c1)[nH]c1ccc(Cl)cc12)c1nc2ccc(Cl)cc2[nH]1 ?
N

Give the logged outcome of this assay for the following compound: CCN(CCO)CCNc1ccc(C)c2sc3cc(OC)ccc3c(=O)c12
N

What is the recorded call for this compound in the test? c1ccc2[nH]c(-c3ccc(OCCCCCOc4ccc(-c5nc6ccccc6[nH]5)cc4)cc3)nc2c1
N

Which result was noted for this compound in the test: COc1ccc(-c2nc(SCC(C)C)nc(Nc3ccc(C(=O)O)cc3)c2C#N)cc1
N

Outcome logged for CC(=O)N(N=O)c1ccc([N+](=O)[O-])cc1Cl in this assay:
N

Answer briefly: the call reported for COC1=CC(c2ccc[nH]2)=N/C1=C\c1[nH]c(C)c(C(=O)CCCCC(=O)NC(C)(C)C)c1C in this assay.
Y

For this compound, state the assay outcome: CC(O)C(N)=O (stereo unspecified)
N

Called result for CC1(C)N=C(N)N=C(N)N1c1cccc(CCCCOc2ccccc2)c1
N

* * *

System: HS 578T breast
Measurement protocol: NCI-60 one-dose screen, 48 h (100 = growth as untreated, 0 = no growth, -100 = all killed)
Experimental setup: 10 µM unless noted
Compounds without any hit were thinned out: in the full panel of roughly 83,000, 20% have a hit.
Rule: growth below 40% gives Criterion met. Equal to or above 40% gives Criterion not met.

Check if growth falls below 40% for CCN(CCO)CCNc1ccc(C)c2sc3cc(OC)ccc3c(=O)c12 .
Criterion not met

# strict comparison: is reported growth < 40%? input = C/C(=N\Nc1ccc(Cl)cn1)c1ccc2ccccc2n1
Criterion met

In the record for COc1cc(-c2nn(-c3ccc(NC(=O)c4ccc(Cl)c(Cl)c4)cc3)cc2-c2ccncc2)ccc1Cl , is growth less than 40%?
Criterion met

Strictly below 40% in growth? Nc1cc(N)c2nc(NCCc3ccc(Cl)c(Cl)c3)cnc2c1
Criterion not met

Please state whether growth is below 40% for O=C(CBr)OCc1ccc([N+](=O)[O-])o1
Criterion not met

is_below(growth, 40%) for COC(=O)c1ccc2[nH]c(O)c(C(=Nc3ccc(N(C)C(=O)CN4CCN(C)CC4)cc3)c3ccc(N)cc3)c2c1 ?
Criterion not met

Quick check: growth of Clc1ccc(N/N=C(\c2ccccc2)c2ccccn2)nc1 under 40%?
Criterion met

I wonder whether N=C(N)c1ccc(-c2ccc(-c3cc(Cl)cc(Cl)c3)s2)cc1 has growth below 40%. Can you tell?
Criterion met

Here's an entry: Cc1cc2cn3c4ccc(O)cc4nc(N)c3c2cc1C . Is its growth below 40%?
Criterion met
